The measurements presented in this section are drawn from PubChem BioAssay AID623868.

Assignment: determine reported manual score for the given molecules.
method: thallium influx changes without GIRK channels – cell-based, HEK-293 rmGlu8, no GIRK, thallium flux, counter-screen for GIRK activator project, confirmation (AID 623868);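 further: extra codes mark interference with 3 for fluorescent and 4 for baseline rise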
condition.context: thallium flux fluorescence, at 10 µM, actives lie on both sides, codes: 1 enhancer, -1 blocker, 0 none, thallium stimulus containing EC20 glutamate
Screen size: about 2,100 compounds; about 760 (36%) were called active. The list is a sample of the results.
Form: value (number only, do not type unit).

Quick one: manual score for CC(/C=N/NC(=O)c1c(Br)cnn1C)=C\c1ccccc1 ?
0

Quick one: manual score for CC1CCN(c2ccccc2NC(=S)NC(=O)c2cccs2)CC1 ?
1

Quick one: manual score for Cc1cc(C)c2[nH]c(=S)cc(C)c2c1 ?
1

Quick one: manual score for Cc1ccccc1C(=O)Nc1ccccc1C(=O)N/N=C\c1ccco1 ?
1

Quick one: manual score for CNc1nc(Cl)nc(NC(C)(C)C)n1 ?
0

Quick one: manual score for Cc1cccc(/C=c2\s/c(=C\C(=O)C(C)(C)C)[nH]c2=O)c1 ?
0

Quick one: manual score for Cc1cccc(NC(=O)CN(c2ccc(C(C)C)cc2)S(=O)(=O)c2c(C)nn(C)c2C)n1 ?
0

Quick one: manual score for Cc1nc(NCCc2ccc(S(N)(=O)=O)cc2)c2c(C)c(C)sc2n1 ?
1

Quick one: manual score for Cc1cccc(NC(=O)COc2ccc(Br)cc2/C=N/O)c1 ?
0

Quick one: manual score for Cc1ccc2c(Cl)cc(Cl)c(OCC(=O)NCc3ccco3)c2n1 ?
1

Quick one: manual score for Cc1ccccc1CNS(=O)(=O)c1ccc2c(c1)OCCO2 ?
0

Quick one: manual score for COc1ccc(CN(CCC#N)C(=S)NC(=O)c2ccccc2)cc1 ?
1

Quick one: manual score for Cc1cccc(-n2ncc3c(NCCc4ccc(S(N)(=O)=O)cc4)ncnc32)c1 ?
0

Quick one: manual score for CC(C)NC(=O)/C(=C/c1ccco1)c1ccccc1 ?
0

Quick one: manual score for COc1ccc(-c2c(S(=O)(=O)c3ccccc3)cnn2-c2ccccc2)cc1 ?
0

Quick one: manual score for N/C(=N\OC(=O)Cc1ccccc1)c1ccc(Br)cc1 ?
0

Quick one: manual score for Cc1cc(C)c(-n2c(C)cc(/C=C3/NC(=O)NC3=O)c2C)c(C)c1 ?
0

Quick one: manual score for COc1ccc(/C=N/NC(=O)c2nc(-c3ccccc3)cc(-c3ccccc3)n2)cc1 ?
0

Quick one: manual score for CN1CCN(Cc2cccc(Oc3ccc(Cl)cc3)c2)CC1 ?
0

Quick one: manual score for Cc1ccccc1OCC(=O)N/N=C/c1cccn1C ?
0

Quick one: manual score for Cc1cc(C)c(NC(=O)/C(=C/c2ccco2)c2ccccc2)c(C)c1 ?
0

Quick one: manual score for COc1ccc(C(=O)N/N=C/c2ccc3cccc(OCc4ccccc4)c3n2)cc1 ?
1

Quick one: manual score for CN(C)c1nc2ccccc2c(N)c1-c1ccccc1 ?
0

Quick one: manual score for NS(=O)(=O)c1ccc(CCNC2CC(=O)N(Cc3ccccc3)C2=O)cc1 (stereo unspecified) ?
0

Quick one: manual score for COc1ccc(Cn2nnnc2C(c2ccccc2Cl)N2CCN(C3CCCC3)CC2)cc1 (stereo unspecified) ?
0

Quick one: manual score for Cc1cccc(C)c1NC(=S)NC(=O)CCc1ccccc1 ?
1

Quick one: manual score for Cc1ccccc1NC(=S)NC(=O)CCc1ccccc1 ?
1

Quick one: manual score for COc1cc(CNc2ccc(N3CCCC3)cc2)ccc1OCc1ccccc1 ?
0

Quick one: manual score for CN(c1ccc(OCC(=O)OCC(=O)Nc2ccccc2F)cc1)S(=O)(=O)c1cccs1 ?
0

Quick one: manual score for Cc1cc(=S)[nH]c2c(C)cccc12 ?
1

Quick one: manual score for N#CCCN(Cc1ccccc1)C(=S)NC(=O)c1ccccc1 ?
1

Quick one: manual score for CCCc1ccc(OCC(=O)NNC(=S)NC(=O)c2ccco2)cc1 ?
1

Quick one: manual score for O=C(CSc1ccc2ccccc2c1Br)Nc1cccc(S(=O)(=O)NC2=NCCCCC2)c1 ?
1

Quick one: manual score for CN(c1ccccc1C(=O)Nc1ccccc1C(=O)NCc1ccco1)S(C)(=O)=O ?
0

Quick one: manual score for CC1(C)Cc2c(ccc3ccccc23)-c2nnc(-c3cccnc3)n21 ?
0

Quick one: manual score for OCCCN=c1cc(-c2ccccc2)oc2ccc(Cl)cc12 ?
-0.5

Quick one: manual score for CC(=O)c1c(C(C)=O)c(C)n(-c2nc(-c3cccs3)c(C)s2)c1C ?
0

Quick one: manual score for CC(/C=N/n1c(-c2ccco2)n[nH]c1=S)=C\c1ccccc1 ?
1

Quick one: manual score for C/C(CC(C)(C)C1CCCCC1)=N\NC(N)=S ?
0

Quick one: manual score for CCOC(=O)C1=NNC(C(=O)c2ccc(OC)cc2)C1c1ccccc1 (stereo unspecified) ?
0

Quick one: manual score for COC(=O)c1sc(N2C(=O)C(O)=C(C(=O)c3ccc(C)o3)C2c2ccc(F)cc2)nc1C (stereo unspecified) ?
-1

###

method: thallium influx changes without GIRK channels – cell-based, HEK-293 rmGlu8, no GIRK, thallium flux, counter-screen for GIRK activator project, confirmation (AID 623868);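 further: extra codes mark interference with 3 for fluorescent and 4 for baseline rise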
condition.context: thallium flux fluorescence, at 10 µM, actives lie on both sides, codes: 1 enhancer, -1 blocker, 0 none, thallium stimulus containing EC20 glutamate
The whole screen tested about 2,100 compounds, of which about 760 (36%) were called active.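 Rule for the calls: active = thallium-flux fluorescence traces judged by eye to show enhanced or reduced glutamate response, manual score 1 or -1, so both directions (some results past the limit were not filed as active); inactive = the rest, including fluorescent or raised-baseline compounds.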 A selection follows.
Hi! Could you answer with just one of these? 1 (yes) (active), 0 (no) (inactive)

Which outcome did this test record for the compound NC(=O)SCC(=O)Nc1ccc(Cl)cc1 ?
0 (no)

Which outcome did this test record for the compound CS(=O)(=O)c1ccc2nc(NC(=O)C3C4C=CC(C4)C3C(=O)O)sc2c1 (configuration not stated) ?
0 (no)

Which outcome did this test record for the compound CCc1ccc(NC(=S)NNC(=O)c2ccccc2OC(F)F)cc1 ?
1 (yes)

Which outcome did this test record for the compound C=C(C)C1CC=C(C)/C(=N/NC(=O)c2ccc(NC(=O)CCC)cc2)C1 (configuration not stated) ?
0 (no)

Which outcome did this test record for the compound CCOC(=O)c1sc(NC(=S)NC(=O)c2ccco2)nc1C ?
1 (yes)

Which outcome did this test record for the compound COc1ccc(CNCCC(c2ccc(F)cc2)c2ccc(OC)cc2)cc1 (configuration not stated) ?
0 (no)

Which outcome did this test record for the compound Fc1ccc(NC(=S)Nc2ccccc2OC(F)F)cc1Cl ?
0 (no)

###

method: thallium influx changes without GIRK channels – cell-based, HEK-293 rmGlu8, no GIRK, thallium flux, counter-screen for GIRK activator project, confirmation (AID 623868);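 further: extra codes mark interference with 3 for fluorescent and 4 for baseline rise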
condition.context: thallium flux fluorescence, at 10 µM, actives lie on both sides, codes: 1 enhancer, -1 blocker, 0 none, thallium stimulus containing EC20 glutamate
The campaign covered roughly 2,100 compounds. About 760 (36%) were called active.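 How the source made its calls: active means thallium-flux fluorescence traces judged by eye to show enhanced or reduced glutamate response, manual score 1 or -1, so both directions (some results past the limit were not filed as active); inactive means the rest, including fluorescent or raised-baseline compounds.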 Only a sample is shown.
Hi! Could you answer with just one of these? active, inactive

Which outcome did this test record for the molecule O=C1/C(=C/c2ccc(N3CCCC3)cc2)NC(=S)N1C1CC1 ?
inactive

Which outcome did this test record for the molecule CC(C)CN1C(=O)/C(=C/c2cccs2)NC1=S ?
active

Which outcome did this test record for the molecule COc1ccc(C(=O)N2C(=S)NC(=O)/C2=C\c2ccc(C)cc2)cc1 ?
inactive

Which outcome did this test record for the molecule CC(Sc1nnnn1C)C(=O)Nc1ccc(Oc2ccccc2)cc1 (stereo not given) ?
inactive

Which outcome did this test record for the molecule CC(=O)c1c(C)[nH]c(C(=O)CSc2ncnc3sc(-c4ccccc4)cc23)c1C ?
active

Which outcome did this test record for the molecule Cc1oc(-c2ccccc2)nc1CS(=O)CC(=O)O (stereo not given) ?
active

Which outcome did this test record for the molecule CCOC(=O)c1sc2ncnc(NCc3ccco3)c2c1C ?
active

Which outcome did this test record for the molecule C=CCN1CCN(C(c2ccc(Cl)cc2)c2nnnn2CCc2ccc(OC)c(OC)c2)CC1 (stereo not given) ?
inactive

Which outcome did this test record for the molecule CCCN1C(=O)/C(=C/c2ccc(C)s2)NC1=S ?
active

Which outcome did this test record for the molecule C=C(C)C1CC=C(C)/C(=N/NC(=O)COc2cccc(C)c2)C1 (stereo not given) ?
inactive

Which outcome did this test record for the molecule CCCCCCc1cc2cc(C(=O)NC)c(=N)oc2cc1O ?
inactive

Which outcome did this test record for the molecule CCOC(=O)c1c(NC(=O)C2C3C=CC(C3)C2C(=O)O)sc2c1CCC(CC)C2 (stereo not given) ?
inactive

Which outcome did this test record for the molecule O=C(NC(=S)Nc1cccc(Cl)c1N1CCCC1)c1ccc(-c2cccc([N+](=O)[O-])c2)o1 ?
inactive

Which outcome did this test record for the molecule CC(=O)c1c(C)[nH]c(C(=O)COc2cc(C)cc(C)c2)c1C ?
inactive

Which outcome did this test record for the molecule COc1ccc(/C=C2\C(=O)NC(=S)N2C(=O)c2ccc(F)cc2)cc1 ?
active

Which outcome did this test record for the molecule Cc1ccccc1-c1nc(CS(=O)(=O)CC(=O)NCCCN2CCCC2)c(C)o1 ?
inactive

Which outcome did this test record for the molecule O=C(COc1ccccc1)NC(=S)N1CCc2ccccc21 ?
active

Which outcome did this test record for the molecule CN(CCC#N)C(=O)CSc1ncnc2sc(-c3ccccc3)cc12 ?
inactive

Which outcome did this test record for the molecule O=C(Nc1ccc(Cl)cc1)NC1CCCCC1Cc1ccco1 (stereo not given) ?
inactive

Which outcome did this test record for the molecule CC(=O)c1sc(NC(=O)c2cc(-c3ccccc3)nn2-c2ccccc2)nc1C ?
inactive

Which outcome did this test record for the molecule CCC1(C)OCC(Cn2c3ccccc3c3ccccc32)O1 (stereo not given) ?
inactive

Which outcome did this test record for the molecule CCN(CC)C(=O)CSc1ncnc2sc(-c3ccccc3)cc12 ?
inactive

Which outcome did this test record for the molecule Cc1cccc(OCc2nnc(SCC(=O)N3CCc4ccccc43)n2C)c1 ?
inactive

Which outcome did this test record for the molecule O=c1[nH]c(NCCO)nc2c1C1(CCCCC1)Cc1ccccc1-2 ?
inactive

Which outcome did this test record for the molecule O=C(Nc1ccc(-c2nc3ccccc3o2)cc1)c1cc(-n2cnnc2)ccc1Cl ?
inactive

Which outcome did this test record for the molecule O=C(CCn1c(=O)oc2ccccc21)N1CCN(c2ccccc2Cl)CC1 ?
inactive

Which outcome did this test record for the molecule Cc1ccsc1/C=N/NC(=O)c1sccc1C ?
active

Which outcome did this test record for the molecule Cc1cccc(-c2nc(CN3CCCC(C(=O)NC4CCCCC4)C3)c(C)o2)c1 (stereo not given) ?
inactive

Which outcome did this test record for the molecule CCOC(=O)c1cccc(-n2c(C)cc(C=O)c2C)c1 ?
inactive

Which outcome did this test record for the molecule CCOC(=O)c1c(NS(=O)(=O)c2cccc(OC)c2)sc2c1CCC2 ?
active

Which outcome did this test record for the molecule O=C(Nc1nnc(-c2ccc3c(c2)CCCC3)o1)C1COc2ccccc2O1 (stereo not given) ?
active

Which outcome did this test record for the molecule Cc1ccc(NC(=O)c2cc(NC(=O)CCC(=O)O)ccc2N2CCCCC2)cc1 ?
inactive

Which outcome did this test record for the molecule CCC(/C=N/NC(=O)C1COc2ccccc2O1)CC (stereo not given) ?
inactive

Which outcome did this test record for the molecule CC1(C)Cc2ccccc2-c2nnc(SCC(=O)N3CCN(c4ccccc4)CC3)n21 ?
inactive

Which outcome did this test record for the molecule O=C(NC(=S)N1CCN(c2c(Cl)cccc2[N+](=O)[O-])CC1)c1cccs1 ?
active

Which outcome did this test record for the molecule CCCCCCc1cc2cc(-c3nnc(-c4cc(OC)c(OC)c(OC)c4)o3)c(=O)oc2cc1O ?
inactive

Which outcome did this test record for the molecule CC(Oc1ccc(Cl)cc1Cl)C(=O)NC(=S)N1CCc2ccccc21 (stereo not given) ?
active

Which outcome did this test record for the molecule O=C1c2ccccc2C(Nc2ccc3c(c2)OCCO3)N1Cc1ccccc1 (stereo not given) ?
inactive

Which outcome did this test record for the molecule O=C(NC(=S)Nc1ccc(N2CCCCC2)cc1)c1cccs1 ?
active

Which outcome did this test record for the molecule CCOC(=O)C(C)Oc1ccc2c(CC)cc(=O)oc2c1C (stereo not given) ?
inactive
